# procedure text: Quantitative High-Throughput drug screen in 47 multiple myeloma cell lines against the NCATS MIPE library collection: U266_ATCC cell viability assay (AID 1919864); note: nearly all actives have a fitted effect of over 35% in size
# condition set: U266 myeloma viability, CellTiter-Glo ATP luminescence, 48 h; series mostly up to 45.8 µM
Results filed as inconclusive are left out. Active and inactive are the calls of the source. Calls come from the whole dose curve; as a rule, active = well fitted cell-killing curve with a large enough effect; inconclusive = small, poorly fitted or top-dose-only effect, or effect the other way; inactive = no such curve, though single readings can be large or run the other way.
Your reply should match one of these outcome classes. t = active, f = inactive

Request: Lab log entry: Cc1cn(-c2cc(NC(=O)c3ccc(C)c(Nc4nccc(-c5cccnc5)n4)c3)cc(C(F)(F)F)c2)cn1 — outcome as called in the assay?
Response: f

Request: Write down the call the test reported for this compound. Item: CC(C)c1nn(-c2c(Cl)cccc2Cl)c2nc(Cc3ccc(OCCO)cc3)[nH]c(=O)c12
Response: t

Request: Please state the recorded outcome for this compound: CC(C)=CCCC(C)=CCCC(C)=CCSc1ccccc1C(=O)O
Response: t

Request: Fill in: this test's call for Cc1cc(Nc2cc(N3CCN(C)CC3)nc(Sc3ccc(NC(=O)C4CC4)cc3)n2)n[nH]1 is ___
Response: t

Request: I'd appreciate the recorded outcome for Cc1nc(N)ncc1-c1nc(N2CCOCC2)c2sc(C(C)(C)O)cc2n1 from this test.
Response: t

Request: Name the outcome recorded for O=C(CCCCCCNC(=O)c1cnc(N(c2ccccc2)c2ccccc2)nc1)NO in the assay.
Response: t

Request: # lookup: test call for C[C@@H]1COC(Nc2ccc3ncnc(Nc4ccc(OCc5nccs5)c(Cl)c4)c3c2)=N1
Response: t

Request: Outcome logged for CNC(=O)c1c(F)cccc1Nc1nc(Nc2cc3c(cc2OC)CCN3C(=O)CN(C)C)nc2[nH]ccc12 in this assay:
Response: t

Request: What did this assay record as the result for COC(=O)[C@]12CCC(C)(C)C[C@@H]1[C@@H]1C(=O)C=C3[C@@]4(C)C=C(C#N)C(=O)C(C)(C)[C@@H]4CC[C@@]3(C)[C@]1(C)CC2 ?
Response: t

Request: Could you check what this test reported for C[C@@H](Oc1cc(-c2cnn(C3CCNCC3)c2)cnc1N)c1c(Cl)ccc(F)c1Cl ?
Response: t

Request: Look up the recorded call for COc1cc2ncnc(Nc3ccc(F)c(Cl)c3)c2cc1NC(=O)C=CCN1CCCCC1 in this test.
Response: t

Request: Hi team, can someone confirm the assay call for CC(C)CC(=O)Nc1n[nH]c2c1CN(C(=O)C1CCN(C)CC1)C2(C)C ?
Response: t

Request: In this assay, the call recorded for O=C(c1cncc(Br)c1)N1CCC(N2CCCC2)CC1 was what?
Response: f

====

# procedure text: Primary qHTS for inhibitors of nuclear receptor binding SET domain protein 2 (NSD2) in an RCH-ACV wild type WT cells (2C) (AID 1645877); note: nearly all actives have a fitted effect of over 70% in size
# condition set: RCH-ACV (leukaemia line) NSD2 WT (2C) viability, CellTiter-Glo, 72 h; series mostly up to 44.9 µM
# From the text: Assay Provider: Jonathan D. Licht, MD University of Florida College of Medicine, Gainesville, FL Mutations in epigenetic regulators are common in relapsed pediatric acute lymphoblastic leukemia (ALL). Here, we uncovered the mechanism underlying the relapse of ALL driven by an activating mutation of the NSD2 histone methyltransferase (p.E1099K). […] Correction of this mutation restored glucocorticoid sensitivity. […]
Results filed as inconclusive are left out. Active and inactive are the calls of the source. The call rests on the fitted dose curve; in most records, active means well fitted inhibition curve with a large enough effect; inconclusive means small, poorly fitted or top-dose-only effect; inactive means no such curve, though single readings can be large or run the other way.
Can you answer with just one of these options? active, inactive

Request: Entry CS(=O)(=O)c1ccc(-c2cnc(N)c(C(=O)Nc3ccccc3)n2)cc1 : call = ?
Response: active

Request: Dear all, I need the recorded test outcome for Cc1ccc(CN2CCNCC2)cc1NC(=O)CNc1ccc(F)c(F)c1 , thank you.
Response: inactive

Request: I'd appreciate the recorded outcome for COc1cccc2nc(-c3cccs3)nc(NN3C(=O)C=C(C)C3=O)c12 from this test.
Response: active

Request: // return assay outcome for Nc1ccc(C(=O)c2cc3c(ccc4ccccc43)[nH]2)cc1
Response: active

Request: Tell me the recorded outcome of this test for Cc1ccc(-c2ncn(-c3ccc(Nc4nccc(-c5cccc(N6CCOCC6)c5)n4)cc3)n2)cn1 .
Response: active

Request: What classification did CC(C)(C)c1cc(C(C)(C)C)c(NC(=O)c2c[nH]c3ccccc3c2=O)cc1O end up with in this test?
Response: active

Request: Can you look up the reported call for CNC(=O)c1ccc(N2C(=S)N(c3cnc(C#N)c(C(F)(F)F)c3)C(=O)C23CCC3)cc1F for me?
Response: inactive

Request: Would you mind telling me which call this test gave C[C@@H](Oc1cc(-n2cnc3ccc(CN4CCN(C)CC4)cc32)sc1C(N)=O)c1ccccc1C(F)(F)F ?
Response: active

Request: What did the test return for CC[C@H](CO)Nc1nc(NCc2ccccc2)c2ncn(C(C)C)c2n1 ?
Response: active

Request: Per the assay record, what outcome was assigned to C[C@@H]1COC(Nc2ccc3ncnc(Nc4ccc(OCc5nccs5)c(Cl)c4)c3c2)=N1 ?
Response: active

Request: For CN[C@H]1CCc2cc(OC)c(OC)c(OC)c2-c2ccc(OC)c(=O)cc21 , which call appears in the assay record?
Response: active

Request: Kindly provide the recorded test outcome for the following compound: O=c1c2ccccc2nc2n1CCc1c-2[nH]c2ccccc12
Response: inactive

Request: Which result was noted for this compound in the test: CCCCCN(CCC12CC3CC(CC(C3)C1)C2)C(=O)NCCCc1ccncc1
Response: active

Request: For this compound, state the assay outcome: CNc1nccc(-c2cccnc2Oc2cc(C(=O)Nc3cccc(C(F)(F)F)c3)ccc2C)n1
Response: active

Request: Look up the recorded call for CC(O)C1C(=O)N2C(C(=O)O)=C(SC3CNC(C(=O)N(C)C)C3)C(C)C12 (stereo not drawn) in this test.
Response: inactive

Request: For this compound, state the assay outcome: CNC(=O)CN1CCC(Oc2cc3c(Nc4cccc(Cl)c4F)ncnc3cc2OC)CC1
Response: active

Request: Recorded call for Clc1ccc2ncc(-c3cccc(NC4CNC4)n3)n2c1 ?
Response: inactive

Request: Kindly provide the recorded test outcome for the following compound: O=C(O)CCCc1c[nH]c2ccccc12
Response: inactive

Request: Look up the recorded call for CC(C)[C@H](C(=O)Nc1ccc(C(=O)NO)cc1)c1ccccc1 in this test.
Response: inactive

Request: Hi, sorry to bother you, what did the test record for CC(=O)SC[C@@H](C)C(=O)N1CCC[C@H]1C(=O)N[C@@H](Cc1ccccc1)C(=O)O ?
Response: inactive

Request: Which outcome was assigned to Cn1cncc1[C@@](N)(c1ccc(Cl)cc1)c1ccc2c(c1)c(-c1cccc(Cl)c1)cc(=O)n2C in this test?
Response: inactive

Request: I'd appreciate the recorded outcome for CN(C)CC(C)(C)CNc1nn2c(-c3ccccc3)nnc2cc1C1CCC1 from this test.
Response: inactive

Request: Give the logged outcome of this assay for the following compound: COc1ccc2c(OCc3nnc4ccc(-c5ccccc5)nn34)ccnc2c1
Response: inactive

Request: Record lookup: outcome of this test for C=C1C(=CC=C2CCC[C@]3(C)[C@@H]([C@H](C)C=C[C@H](C)C(C)C)CC[C@@H]23)C[C@@H](O)C[C@@H]1O ?
Response: inactive

Request: Assay result, entry Nc1ccn([C@@H]2CS[C@H](CO)O2)c(=O)n1 — outcome?
Response: inactive

Request: Hey, what did the test say about COc1ccc(OC)c(-c2nnc3ccc(-c4ccc(OC)c(O[C@@H]5CCOC5)c4)nn23)c1 ?
Response: active

Request: Please state the recorded outcome for this compound: CN1CCN(c2cc(C(=O)Nc3ccc4c(c3)-c3c(c(C(N)=O)nn3-c3ccc(F)cc3)CC4)c(Cl)cn2)CC1
Response: active

Request: For CC(=O)OCCN1C(=O)c2c(C)nc3ccc(S(=O)(=O)N4CCOCC4)cc3c2C1=O , which call appears in the assay record?
Response: inactive

Request: Write down the call the test reported for this compound. Item: O=c1[nH]nc(Sc2ncc([N+](=O)[O-])s2)n1-c1ccc2c(c1)OCCO2
Response: active

Request: Would you mind telling me which call this test gave CN1c2cc(O)c(N=NC(N)=O)cc2CC1S(=O)(=O)O (stereo not drawn) ?
Response: inactive

Request: Test call for this compound, please: C=CC(=O)Nc1cc2c(Nc3ccc(F)c(Cl)c3)ncnc2cc1C#CC(C)(C)N1CCN(C)CC1
Response: active

Request: // outcome(item) with item = COc1cc(C(=O)NS(=O)(=O)c2ccccc2C)ccc1Cc1cn(C)c2ccc(NC(=O)OC3CCCC3)cc12
Response: inactive

Request: Identify the outcome logged in this assay for the compound shown: Cc1ccc(S(=O)(=O)Nc2cc(Cl)ccc2C(=O)Nc2nc(-c3ccccc3)cs2)cc1
Response: inactive

// data source = PubChem BioAssay (NCATS)
